# TEST METHOD NOTES: in vitro
# CONDITIONS: human, hela cells, % viability
Please respond with yes (1) when measured viability at 28.5 h, 10 µM is strictly beneath 90%, and with no (0) in all other cases.

Known results for compounds:
CCNS(=O)(=O)c1ccc(NC(=O)Nc2cc(C)ccc2OC)cc1 no (0)
O=C(NCc1cccc(C(F)(F)F)c1)N1CCN(CCN2CCOCC2)CC1 no (0)
CCOc1cccc(NC(=O)/C(C#N)=C\c2cc(OC)c(O)cc2Br)c1 no (0)
O=C(c1ccccc1Nc1cccc(C(F)(F)F)c1)N1CCN(c2ccccn2)CC1 no (0)
CCOC(=O)c1cccnc1-c1ccc(OC)c(OC)c1 no (0)
CCc1nnc(NC(=O)CCc2ccccc2)s1 yes (1)
Cc1noc(C)c1S(=O)(=O)Nc1cccc(-c2cnco2)c1 no (0)
CC(C)C[C@H]([C@@H]1C[C@@H](C(C)C)C(=O)O1)N1C(=O)c2ccccc2C1=O no (0)

Shift focus to the following entry.
Strictly below 90% in viability at 28.5 h, 10 µM? O=C(C1CCCC1)N1CC(n2nc(-c3cccs3)ccc2=O)C1 yes (1)

###

Listed next: entries and their corresponding viability at 28.5 h, 10 µM.
# TEST METHOD NOTES: in vitro
# CONDITIONS: human, hela cells, % viability

# example entries with known answers
MOLECULE	READOUT TYPE	DATA VALUE
CN(C)c1ccccc1-c1cc(Nc2ccc(C(C)(C)C)cc2)ncn1 [CBK090872]	viability at 28.5 h, 10 µM	95.4%
CC(Oc1ccccc1)C(=O)Nc1c[nH]c(=O)[nH]c1=O (stereo not shown) [CBK266524]	viability at 28.5 h, 10 µM	72.3%
COCCN(Cc1cnn(C)c1)Cc1cc(O)c2cc(C)ccc2n1 [CBK306723]	viability at 28.5 h, 10 µM	86.1%
CN(Cc1nc2c(s1)CCCC2)C(=O)c1ccc2[nH]cnc2c1 [CBK304138]	viability at 28.5 h, 10 µM	88.4%

Read off the recorded viability at 28.5 h, 10 µM for Cc1ccc(S(=O)(=O)Nc2ccc3[nH]ccc3c2)cc1 [CBK153519] 92.5%

Read off the recorded viability at 28.5 h, 10 µM for Cn1c(=O)n(C)c2cc(S(=O)(=O)NCCC(=O)O)ccc21 [CBK267565] 105%

Read off the recorded viability at 28.5 h, 10 µM for Cc1nc2ccccc2n1C(F)(F)C(F)F [CBK022023] 116%

Read off the recorded viability at 28.5 h, 10 µM for Cn1cc(-c2ncc(OCCOc3ccccc3)nc2N)cn1 [CBK145171] 108%

Read off the recorded viability at 28.5 h, 10 µM for COc1ccccc1N(CC(O)CN1CCCC1)S(=O)(=O)c1ccccc1 (stereo not shown) [CBK264829] 114%

Read off the recorded viability at 28.5 h, 10 µM for COc1ccc(CCN2CCC(Oc3nccnc3NS(C)(=O)=O)CC2)cc1OC [CBK084285] 103%

###

# TEST METHOD NOTES: in vitro
# CONDITIONS: human, hela cells, % viability
Listed next: entries and their corresponding viability at 28.5 h, 10 µM.
State the value with its unit after it.

Read off the recorded viability at 28.5 h, 10 µM for Cc1nnc(SCCCCSc2nnc(C)n2N)n1N [CBK265686] 88.5%

Read off the recorded viability at 28.5 h, 10 µM for Cc1ccc(C2CCCN2C(=O)c2cccn(CC(=O)NC3CCCCC3)c2=O)cc1C (stereo not shown) [CBK286009] 92.2%

Read off the recorded viability at 28.5 h, 10 µM for Cc1ccc2oc(C(=O)Nc3ccc(-n4cnnn4)cc3)c(C)c2c1 [CBK287804] 88.1%

Read off the recorded viability at 28.5 h, 10 µM for Nn1c(Cn2nnc3ccccc32)n[nH]c1=S [CBK268233] 111%

Read off the recorded viability at 28.5 h, 10 µM for N#Cc1cccc(CN2CCCC3(CCN(C(=O)Cc4c[nH]c5ccccc45)C3)C2)c1 (stereo not shown) [CBK132032] 103%

Read off the recorded viability at 28.5 h, 10 µM for CCN(Cc1ccncc1)C(=O)NCCOc1ccccc1 [CBK155148] 100%

###

# TEST METHOD NOTES: in vitro
# CONDITIONS: human, hela cells, % viability
READOUT TYPE: viability at 28.5 h, 10 µM
State the value with its unit after it.

COMPOUND	viability at 28.5 h, 10 µM
O=S(=O)(Nc1nnc(C(F)(F)F)s1)c1ccc(-c2cc(C(F)(F)F)on2)s1	91.1%
COc1cccc(C2C(C(=O)c3ccc(Br)cc3)=C(O)C(=O)N2CCCN(C)C)c1 (stereo not shown)	84.5%
Cn1c(Cc2nn(C)c(=O)c3ccccc23)nnc1SCC(=O)C(C)(C)C	105%

Read off the recorded viability at 28.5 h, 10 µM for O=[N+]([O-])c1cccc(S(=O)(=O)NCCOc2cccc3cccnc23)c1 98.6%

Read off the recorded viability at 28.5 h, 10 µM for O=C(Cn1ncn2nc(-c3ccccc3)cc2c1=O)Nc1ccc(F)cc1 85.8%

Read off the recorded viability at 28.5 h, 10 µM for N#Cc1ccc(N2CCCC(N3CCNC3=O)C2)c(C(F)(F)F)c1 (stereo not shown) 84.9%

Read off the recorded viability at 28.5 h, 10 µM for Cc1c(C(N)=O)sc2nc(C(F)(F)F)cc(N)c12 97.1%

Read off the recorded viability at 28.5 h, 10 µM for C=CCn1c(SCC(=O)Nc2cc(Cl)ccc2O)nnc1-c1ccccc1O 100%

###

# TEST METHOD NOTES: in vitro
# CONDITIONS: human, hela cells, % viability
READOUT TYPE: viability at 28.5 h, 10 µM (%)
Your answer should be a plain number; it is taken to be in %.

# example entries with known answers
C[C@H](Nc1nc(-c2cccc(C(=O)NCCN(C)C)c2)cnc1N)c1ccccc1 112
Cc1ccc(C(=O)NC2CCCCC2)c(N2CCOCC2)n1 96.5
N#CCCCN1CCC(Oc2nccnc2OCc2cccnc2)CC1 85.9

Read off the recorded viability at 28.5 h, 10 µM for CC[C@H]1CN(S(=O)(=O)c2ccccc2)CC[C@H]1CC(=O)N(C)CC#N 108

Read off the recorded viability at 28.5 h, 10 µM for Cc1oc2[nH]c(CN(C)CCOc3ccc(Cl)cc3)nc(=N)c2c1C(=O)O 102

###

# TEST METHOD NOTES: in vitro
# CONDITIONS: human, hela cells, % viability
Please respond with yes when measured viability at 28.5 h, 10 µM is strictly beneath 90%, and with no in all other cases.

Known results for molecules:
MOLECULE	DISCRETE LABEL
O=C(NCCCn1cccn1)N1CCCN(Cc2ccc(Cl)cc2)CC1	no
COc1ccc(-c2cc(C(=O)NCC(F)(F)F)cnc2-c2ccc(Cl)cc2)cn1	no
CCC(=O)NC(c1ccc(OC)c(OC)c1)c1ccc2cccnc2c1O (stereo not drawn)	yes
NC(=O)CN1CCN(c2nccnc2Oc2ccc(F)cc2)CC1 [CBK083018T]	no

Strictly below 90% in viability at 28.5 h, 10 µM? CCOC(=O)c1sc(NS(=O)(=O)Cc2ccccc2)nc1C no

Strictly below 90% in viability at 28.5 h, 10 µM? O=C(Cn1cnc2ccccc21)N1CCC(c2ccccc2)C1 (stereo not drawn) yes

###

# TEST METHOD NOTES: in vitro
# CONDITIONS: human, hela cells, % viability
Listed next: entries and their corresponding viability at 28.5 h, 10 µM.
Your answer should be a plain number; it is taken to be in %.

# example entries with known answers
COMPOUND	viability at 28.5 h, 10 µM (%)
NCC1CCCN1C(=O)c1ccc(Oc2cccc(Br)c2)nc1 (stereo not drawn)	95.5
CSc1nnc(-c2cccc(C)c2)n1CC(C)C [CBK076764T]	89.1
CC(=O)Nc1cccc(C(=O)N2CCN(Cc3ccccn3)CC2)c1	86.3
COC(=O)[C@H]1CN(C(=O)CN2CCCC2=O)C[C@@H]1c1ccc(F)cc1	93.3
CCOC(=O)c1cccc(-n2ncc(-c3ccc(F)cc3)n2)c1	94.1

Switching to the query record.
Read off the recorded viability at 28.5 h, 10 µM for c1ccc2oc(CN3Cc4nc[nH]c4C[C@H]3c3nc(-c4ccc5c(c4)OCO5)no3)cc2c1 81.5

###

Listed next: entries and their corresponding viability at 28.5 h, 10 µM.
# TEST METHOD NOTES: in vitro
# CONDITIONS: human, hela cells, % viability
Your answer should be a plain number; it is taken to be in %.

COMPOUND	viability at 28.5 h, 10 µM [%]
Cc1nn(CCCC(=O)Nc2sc3c(c2C#N)CCC(C(C)(C)C)C3)c(C)c1[N+](=O)[O-] (centres unmarked)	103

Read off the recorded viability at 28.5 h, 10 µM for CC1(C)CC(NC(=O)COc2ccc([N+](=O)[O-])cc2)CC(C)(C)N1 98

Taken from paper PMC12040169.
